The measurements presented in this section are drawn from paper PMC3493172.

Biological target: EAAC1 (Rattus norvegicus, UniProt P51907)
Sequence (P51907 whole entry): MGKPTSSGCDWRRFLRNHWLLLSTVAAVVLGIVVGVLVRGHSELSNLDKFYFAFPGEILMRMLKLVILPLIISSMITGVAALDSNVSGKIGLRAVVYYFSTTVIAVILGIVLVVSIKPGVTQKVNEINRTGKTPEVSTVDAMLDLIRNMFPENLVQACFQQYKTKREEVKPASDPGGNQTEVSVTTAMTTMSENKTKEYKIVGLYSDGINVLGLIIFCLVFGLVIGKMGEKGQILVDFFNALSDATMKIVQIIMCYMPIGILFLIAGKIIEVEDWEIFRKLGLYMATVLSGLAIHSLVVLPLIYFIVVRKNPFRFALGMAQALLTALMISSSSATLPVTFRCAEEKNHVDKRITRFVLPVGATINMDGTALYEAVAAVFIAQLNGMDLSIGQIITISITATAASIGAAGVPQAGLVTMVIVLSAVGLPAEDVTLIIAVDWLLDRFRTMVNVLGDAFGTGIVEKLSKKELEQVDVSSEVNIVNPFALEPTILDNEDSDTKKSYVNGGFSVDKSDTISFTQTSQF
Test: Whole-cell current recording of EAAC1WT expressed in HEK 293T cells
Format: cell-based
Conditions: read-out: inhibition constant Ki, glutamate-induced anion current, forward transport mode; 20 μM glutamate; n = 3; 0 mV; KSCN pipette
pKi: −log10 of the molar value.

{"columns": ["compound", "tested target", "pKi"],
 "data": [
  ["O=C(O)[C@H]1NC[C@@H]2C(O)=NO[C@@H]21 [(+)-HIP-B]", "EAAC1 (Rattus norvegicus, UniProt P51907)", 5.06]
]}

====

Biological target: EAAC1 (Rattus norvegicus, UniProt P51907)
Assay: Whole-cell current recording of EAAC1WT expressed in HEK 293T cells
Format: cell-based
Details: read-out: inhibition constant in the reverse transport mode; 20 μM glutamate; n = 3; reverse transport mode
pKi: −log10 of the molar value.
measured endpoint: pKi

{"columns": ["compound", "measured endpoint", "number"],
 "data": [
  ["O=C(O)[C@H]1NC[C@@H]2C(O)=NO[C@@H]21 [(+)-HIP-B]", "pKi", 4.63]
]}
